Some binders, each annotated with its measured Kd.
Molecular target: T1, EsCas13d, nuclease-dead (Eubacterium siraeum, UniProt B0MS50, R295A;H300A;R849A;H854A)
T1 sequence: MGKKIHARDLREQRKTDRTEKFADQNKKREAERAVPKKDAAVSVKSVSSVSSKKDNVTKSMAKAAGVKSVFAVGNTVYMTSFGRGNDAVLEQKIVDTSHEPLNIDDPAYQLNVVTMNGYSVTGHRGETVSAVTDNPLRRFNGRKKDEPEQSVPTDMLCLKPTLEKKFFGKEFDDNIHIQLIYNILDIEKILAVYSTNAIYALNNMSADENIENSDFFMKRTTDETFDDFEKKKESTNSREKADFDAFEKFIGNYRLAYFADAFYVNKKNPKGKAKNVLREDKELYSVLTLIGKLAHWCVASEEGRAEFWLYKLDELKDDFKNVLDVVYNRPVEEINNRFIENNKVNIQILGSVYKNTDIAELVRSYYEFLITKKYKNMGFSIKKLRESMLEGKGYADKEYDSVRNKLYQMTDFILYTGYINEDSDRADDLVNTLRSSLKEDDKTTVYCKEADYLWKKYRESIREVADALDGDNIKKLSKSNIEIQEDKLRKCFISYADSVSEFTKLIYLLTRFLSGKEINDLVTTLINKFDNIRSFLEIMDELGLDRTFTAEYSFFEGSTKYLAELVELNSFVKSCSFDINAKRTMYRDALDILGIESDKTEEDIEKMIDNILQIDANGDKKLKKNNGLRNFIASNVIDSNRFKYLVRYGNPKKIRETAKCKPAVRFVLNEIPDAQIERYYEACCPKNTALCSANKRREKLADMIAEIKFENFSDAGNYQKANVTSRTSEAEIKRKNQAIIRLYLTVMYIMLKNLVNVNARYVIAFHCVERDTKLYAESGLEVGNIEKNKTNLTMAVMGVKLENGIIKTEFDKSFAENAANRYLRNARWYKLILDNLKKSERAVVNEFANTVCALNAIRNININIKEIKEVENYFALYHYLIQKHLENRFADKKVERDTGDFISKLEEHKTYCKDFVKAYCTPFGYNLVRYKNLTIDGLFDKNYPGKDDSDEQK
Assay: crRNA (strand 1, pre-loaded); Mg2+; 40 mM Tris-HCl pH 7.5, 150 mM NaCl, 6 mM MgCl2, 1 mM DTT, 0.1% Tween-20, 0.2 mg/ml BSA; 25 C; 10 min per concentration, then washed
Conditions: tags: His6-TwinStrep-SUMO cleaved; N-terminal SNAP kept (SNAP-Surface 488); label: 3' end held by stalled T7 RNA polymerase
Quick reminder: number only, in µM, skip the unit.

[
  {
    "binder": "target 1 MT 5'PFS GUC 3'PFS CGU (mixed) RNA 1: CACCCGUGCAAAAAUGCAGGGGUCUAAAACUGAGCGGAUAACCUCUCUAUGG RNA 2: GGGAAUGGAUCCACAUCUACGAAUUCGUCCCAUAGAGAGGUUAUCCGCUCACGUAGAUCGGAAGAGCACACGU",
    "test_value": 0.0132
  }
]

Query: Please supply the value of reported Kd for the item target 1 insA 3' of 19,insG 3' of 4 (mixed) RNA 1: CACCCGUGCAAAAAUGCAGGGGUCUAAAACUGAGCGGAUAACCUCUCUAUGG RNA 2: GGGAAUGGAUCCACAUCUACGAAUUCGUACCAUAAGAGAGGUUAUCCGCGUCACCGAGAUCGGAAGAGCACACGU
Result: 0.0151

Query: Give the reported Kd for this binder. target 1 MT 5'PFS GUU 3'PFS UUC (mixed) RNA 1: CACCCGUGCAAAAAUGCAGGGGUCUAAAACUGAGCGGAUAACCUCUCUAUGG RNA 2: GGGAAUGGAUCCACAUCUACGAAUUCGUUCCAUAGAGAGGUUAUCCGCUCAUUCAGAUCGGAAGAGCACACGU
Result: 0.0106

Query: Identify the reported Kd for the following entry. target 1 MT 5'PFS GAC 3'PFS CUU (mixed) RNA 1: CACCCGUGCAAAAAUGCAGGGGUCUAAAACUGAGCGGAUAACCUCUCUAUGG RNA 2: GGGAAUGGAUCCACAUCUACGAAUUCGACCCAUAGAGAGGUUAUCCGCUCACUUAGAUCGGAAGAGCACACGU
Result: 0.0121
